Test: qHTS of pediatric cancer cell lines to identify multiple opportunities for drug repurposing: Confirmatory screen for SK-N-SH cells (AID 1347129);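 note: cells exposed to compound for 48 h before viability read; nearly all actives have a fitted effect of over 60% in size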
Settings: SK-N-SH neuroblastoma cell viability; series mostly up to 46.1 µM
Results filed as inconclusive are left out. The source made the active and inactive calls. Calls come from the whole dose curve; as a rule, active = well fitted cell-killing curve with a large enough effect; inconclusive = small, poorly fitted or top-dose-only effect; inactive = flat fitted curve, though single readings scatter.
Outcome codes: 1.0 (active), 0.0 (inactive)

>>> qualitative_label("N[C@@]1(C(=O)O)CS(=O)(=O)[C@H]2[C@H](C(=O)O)[C@H]21")
0.0
>>> qualitative_label("CC(=O)Nc1ccc([C@H](C)C(=O)Nc2ncc(C(C)C)s2)cc1")
1.0
>>> qualitative_label("O=c1[nH]cnc2c1ncn2[C@H]1CC[C@@H](CO)O1")
0.0
>>> qualitative_label("CN(C)C1CCN(C(=O)c2ccc(NC(=O)Nc3nc(N4CCOCC4)nc(N4CCOCC4)n3)cc2)CC1")
1.0
>>> qualitative_label("CO[C@H]1C[C@@H]2CC[C@@H](C)[C@@](O)(O2)C(=O)C(=O)N2CCCC[C@@H]2C(=O)O[C@H]([C@H](C)C[C@@H]2CC[C@H](OCCO)[C@H](OC)C2)CC(=O)[C@H](C)C=C(C)[C@@H](O)[C@@H](OC)C(=O)[C@H](C)C[C@H](C)C=CC=CC=C1C")
0.0
>>> qualitative_label("CO[C@H]1C[C@@H]2CC[C@@H](C)[C@@](O)(O2)C(=O)C(=O)N2CCCC[C@@H]2C(=O)O[C@H]([C@H](C)C[C@@H]2CC[C@H](OP(C)(C)=O)[C@H](OC)C2)CC(=O)[C@H](C)C=C(C)[C@@H](O)[C@@H](OC)C(=O)[C@H](C)C[C@H](C)C=CC=CC=C1C")
0.0
